test system: MDA-MB-468 breast; assay: NCI tumour cell line growth inhibition, 48 h; in the data active = GI50 below about 0.43 µM; inactive = the rest
Use one of these outcomes when replying: 1.0 for active, 0.0 for inactive

Take a look at these entries with their results.
Smiles str: O=C1C[C@@H]2/C(=C(O)\C=C\c3ccccc3)C(=O)C=C[C@@H]2O1
Category: 0.0
--
Smiles str: C=C(c1ccc(OC)c(N)c1)c1cc(C)nc2ccccc12
Category: 1.0
--
Smiles str: C=C1C(=O)O[C@H]2[C@H]1CC/C(Cn1cc(-c3ccccc3C(F)(F)F)nn1)=C\CC[C@@]1(C)O[C@@H]21
Category: 0.0

Call for entry O=C1C(=O)c2cccnc2-c2ncccc21 :
1.0

Call for entry Cc1cc(N2CCOCC2)cc2[nH]c(-c3c(NC[C@@H](O)c4cccc(Cl)c4)cc[nH]c3=O)nc12 :
0.0

Call for entry Cc1ccc(Cl)cc1NC(=O)c1sc2nc3c(cc2c1N)C(=O)CCC3 :
0.0

Call for entry Cn1cc(-c2ccc(-c3ccc(C4=NC5(CC5)C(=O)N4C[C@@H]4CCN(C(=O)C5CC5)C4)cc3)cc2)cn1 :
0.0

----------
Listed compounds paired with reported TGI
test system: MDA-MB-468 breast; experiment: NCI tumour cell line growth inhibition, 48 h
Value expressed in µM; do not type the unit.

Worked set:
Smiles str: CCN(CC)c1ccc(C(=O)c2ccc(N(CC)CC)cc2)cc1
Target entity: MDA-MB-468 breast
U: µM
TGI: 1.66

Smiles str: O=C(/C=C/c1ccc(C(F)(F)F)cc1)c1ccc(Nc2nc(NCCO)nc(Nc3ccc(Cl)cc3)n2)cc1
Target entity: MDA-MB-468 breast
U: µM
TGI: 21.3

Smiles str: C=C(c1ccc(OC)c(N)c1)c1cc(C)nc2ccccc12
Target entity: MDA-MB-468 breast
U: µM
TGI: 76.3

Smiles str: O=C1C(=O)c2cccnc2-c2ncccc21
Target entity: MDA-MB-468 breast
U: µM
TGI: 0.491

Smiles str: S=P(N1CC1)(N1CC1)N1CC1
Target entity: MDA-MB-468 breast
U: µM
TGI: 170

Smiles str: Cn1cc(-c2ccc(-c3ccc(C4=NC5(CC5)C(=O)N4C[C@@H]4CCN(C(=O)C5CC5)C4)cc3)cc2)cn1
Target entity: MDA-MB-468 breast
U: µM
TGI: 40.1

Smiles str: CN(C)c1ccc(/C=C/c2cc[n+](C)c(/C=C/c3ccc(N(C)C)cc3)c2)cc1
Target entity: MDA-MB-468 breast
U: µM
TGI: 0.537

Smiles str: COc1cc(-c2nc(SCCC(C)C)nc(Nc3ccc(S(N)(=O)=O)cc3)c2C#N)cc(OC)c1OC
Target entity: MDA-MB-468 breast
U: µM
TGI: 9.96

TGI lookup needed for C[N+]1=C(/C=C\C=C\c2ccccc2)C(C)(C)c2ccccc21 , thanks.
4.55

TGI lookup needed for COc1ccc(-c2ccc(-c3ccc(C(=N)N)o3)o2)cc1 , thanks.
2.84

TGI lookup needed for N#C/C(=C\c1ccc(Br)cc1)n1nnc2ccc(F)cc21 , thanks.
0.867
